pIC50: −log10 of the molar value.
Data export: pIC50 values recorded with Acetylcholinesterase (Rattus norvegicus).
Sequence (P37136 whole entry): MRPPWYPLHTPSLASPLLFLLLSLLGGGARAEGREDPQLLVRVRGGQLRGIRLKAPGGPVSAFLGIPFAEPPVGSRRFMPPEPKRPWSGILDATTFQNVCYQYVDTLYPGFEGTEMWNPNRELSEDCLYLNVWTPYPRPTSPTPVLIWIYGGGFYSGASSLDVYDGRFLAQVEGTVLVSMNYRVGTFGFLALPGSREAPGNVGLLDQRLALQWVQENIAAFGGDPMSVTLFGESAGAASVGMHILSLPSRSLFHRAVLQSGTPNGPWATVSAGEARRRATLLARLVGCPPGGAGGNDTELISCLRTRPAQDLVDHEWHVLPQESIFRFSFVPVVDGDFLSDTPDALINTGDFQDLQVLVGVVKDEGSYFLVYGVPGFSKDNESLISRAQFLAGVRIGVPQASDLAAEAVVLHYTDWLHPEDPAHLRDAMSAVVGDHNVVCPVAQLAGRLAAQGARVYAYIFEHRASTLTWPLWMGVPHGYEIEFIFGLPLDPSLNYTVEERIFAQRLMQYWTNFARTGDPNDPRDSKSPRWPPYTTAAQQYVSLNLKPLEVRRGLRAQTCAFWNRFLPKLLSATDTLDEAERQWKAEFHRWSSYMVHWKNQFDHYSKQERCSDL
Property name: pIC50

Compound	Property name	Readout number
Cc1c[n+](CCO)ccc1/C=C/c1cccc2ccccc12	pIC50	4.57
NCCC[n+]1ccc(/C=C/c2cccc3ccccc23)cc1	pIC50	3.66
CCCC[n+]1ccc(/C=C/c2cccc3ccccc23)cc1	pIC50	5.41
O=C(O)CC[n+]1ccc(/C=C/c2cccc3ccccc23)cc1	pIC50	3.00
Cc1c[n+](CCC(=O)O)ccc1/C=C/c1cccc2ccccc12	pIC50	3.12
CCOC(=O)C(C(=O)OCC)[n+]1ccc(/C=C/c2cccc3ccccc23)cc1	pIC50	3.30
O=C(CBr)C[n+]1ccc(/C=C/c2cccc3ccccc23)cc1	pIC50	4.40
CCNC(=O)NC(=O)C[n+]1ccc(/C=C/c2cccc3ccccc23)cc1	pIC50	3.89
CCOC(=O)C[n+]1ccc(/C=C/c2cccc3ccccc23)c(C)c1	pIC50	5.00
OCC[n+]1ccc(/C=C/c2cccc3ccccc23)cc1	pIC50	4.17
Cc1c[n+](CC(N)=O)ccc1/C=C/c1cccc2ccccc12	pIC50	4.35
CCC[n+]1ccc(/C=C/c2cccc3ccccc23)cc1	pIC50	4.76
CCCCCCC(C)OC(=O)CC(=O)C[n+]1ccc(/C=C/c2cccc3ccccc23)cc1 (configuration not stated)	pIC50	3.46
C[n+]1ccc(/C=C/c2cccc3ccccc23)cc1	pIC50	4.52
NC(=O)NC(=O)C[n+]1ccc(/C=C/c2cccc3ccccc23)cc1	pIC50	3.85
CCOC(=O)C[n+]1ccc(/C=C/c2cccc3ccccc23)cc1	pIC50	4.49
OCCC[n+]1ccc(/C=C/c2cccc3ccccc23)cc1	pIC50	4.44
C[N+]1=CC=NC1/C=C/c1cccc2ccccc12 (configuration not stated)	pIC50	4.29
NC(=O)C[n+]1ccc(/C=C/c2cccc3ccccc23)cc1	pIC50	4.10
Cc1c[n+](CCN)ccc1/C=C/c1cccc2ccccc12	pIC50	4.52
NCC[n+]1ccc(/C=C/c2cccc3ccccc23)cc1	pIC50	4.19
CC(=O)C[n+]1ccc(/C=C/c2cccc3ccccc23)cc1	pIC50	4.51

###

Here, each record is paired with measured pIC50 data.
Molecular target: UniProtKB P32738
Sequence (P32738 whole entry): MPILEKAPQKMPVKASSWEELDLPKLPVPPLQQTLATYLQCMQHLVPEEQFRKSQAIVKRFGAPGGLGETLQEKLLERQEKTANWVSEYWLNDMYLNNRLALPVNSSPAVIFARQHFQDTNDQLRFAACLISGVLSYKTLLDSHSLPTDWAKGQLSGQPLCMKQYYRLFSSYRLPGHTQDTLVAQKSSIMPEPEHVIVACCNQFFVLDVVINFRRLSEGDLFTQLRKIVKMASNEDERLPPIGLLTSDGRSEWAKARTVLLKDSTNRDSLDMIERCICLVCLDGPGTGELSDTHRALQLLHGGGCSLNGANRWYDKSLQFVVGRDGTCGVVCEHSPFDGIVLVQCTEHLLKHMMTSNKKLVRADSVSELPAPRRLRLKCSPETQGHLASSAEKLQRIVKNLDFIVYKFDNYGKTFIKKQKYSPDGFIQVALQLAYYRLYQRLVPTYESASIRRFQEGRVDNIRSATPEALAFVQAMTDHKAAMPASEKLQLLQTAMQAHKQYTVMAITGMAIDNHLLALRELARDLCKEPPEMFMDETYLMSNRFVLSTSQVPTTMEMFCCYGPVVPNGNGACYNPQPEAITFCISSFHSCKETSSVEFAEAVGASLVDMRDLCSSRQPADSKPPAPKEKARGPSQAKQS
Test: Inhibition of choline acetyltransferase (ChAT) activity
Settings: read-out: I50
pIC50: −log10 of the molar value.
Property name: pIC50

Compound	Readout number
CCCCCCC(C)OC(=O)CC(=O)C[n+]1ccc(/C=C/c2cccc3ccccc23)cc1 (centres undefined)	4.30
CC(=O)C[n+]1ccc(/C=C/c2cccc3ccccc23)cc1	5.43
O=C(CBr)C[n+]1ccc(/C=C/c2cccc3ccccc23)cc1	5.00
CCOC(=O)C[n+]1ccc(/C=C/c2cccc3ccccc23)cc1	6.00
CCOC(=O)C(C(=O)OCC)[n+]1ccc(/C=C/c2cccc3ccccc23)cc1	4.68
NC(=O)C[n+]1ccc(/C=C/c2cccc3ccccc23)cc1	6.57
CCNC(=O)NC(=O)C[n+]1ccc(/C=C/c2cccc3ccccc23)cc1	5.41
Cc1c[n+](CCO)ccc1/C=C/c1cccc2ccccc12	5.77
OCC[n+]1ccc(/C=C/c2cccc3ccccc23)cc1	5.77
C[n+]1ccc(/C=C/c2cccc3ccccc23)cc1	6.41
C(=C\c1cccc2ccccc12)/c1ccncc1	4.42
Cc1cnccc1/C=C/c1cccc2ccccc12	4.40
O=C(CO)C[n+]1ccc(/C=C/c2cccc3ccccc23)cc1	5.52
NCC[n+]1ccc(/C=C/c2cccc3ccccc23)cc1	5.41
O=C(O)C[n+]1ccc(/C=C/c2cccc3ccccc23)cc1	4.34
Cc1c[n+](CCC(=O)O)ccc1/C=C/c1cccc2ccccc12	4.35
CCC[n+]1ccc(/C=C/c2cccc3ccccc23)cc1	6.72
CCOC(=O)C[n+]1ccc(/C=C/c2cccc3ccccc23)c(C)c1	5.92
CCCC[n+]1ccc(/C=C/c2cccc3ccccc23)cc1	6.43
